Assay: Volume of distribution at steady state in beagle dog at 1 mg/kg, iv and 2 mg/kg, po administered via gavage by LC-MS/MS analysis
Assay type: ADME, organism-based, Canis lupus familiaris
Details: in vivo, read-out: Vdss
observable: Vd (L/kg)
Write it as a number; the unit L/kg goes unstated.

Give the measured Vd of CS(=O)(=O)n1cc2c(n1)CN([C@H]1CO[C@H](c3cc(F)ccc3F)[C@@H](N)C1)C2.O=C(O)C(F)(F)F . 1.3

====

Assay: Tmax in Sprague-Dawley rat at 1 mg/kg, iv and 2 mg/kg, po administered via gavage by LC-MS/MS analysis
Format: ADME, organism-based
Conditions: in vivo
observable: Tmax (h)
The reply should be a number in h, with the unit left off.

Which Tmax reading was recorded for the compound CS(=O)(=O)n1cc2c(n1)CN([C@H]1CO[C@H](c3cc(F)ccc3F)[C@@H](N)C1)C2.O=C(O)C(F)(F)F ? 1
